assay-system: Dopamine receptor (Rattus norvegicus) (UniProt P25115+P19020+P30729+P18901+P61169)
protocol-text: Evaluation for contralateral turning in 6-hydroxy-dopamine-lesioned rats administered intraperitoneally at the dose 1 mg/kg duration
Type: functional, organism-based
Set-up: dose 1 mg/kg
property-name: Duration (h)

a: CCCN(CCCC#N)C1CCc2c(O)cccc2C1 (stereo in doubt; (-)-3)
b: CCCN(CCCC#N)C1CCc2c(O)cccc2C1 (stereo in doubt; 3)
c: CCCN(CCCOC)C1CCc2c(O)cccc2C1 (stereo not given)
[in] Sort ascending by Duration. Would you mind listing the labels in the order asked for?
[out] c, b, a
(c: 2 h, b: 3 h, a: 6 h)

A: CCCN(CCCCl)C1CCc2c(O)cccc2C1 (stereo not given)
B: CCCN(CCCO)C1CCc2c(O)cccc2C1 (stereo not given)
[in] Rank A against B by their Duration values and give the higher one. API: response body contains the label of the selected item.
[out] A
(A: 7 h, B: 3 h)

* * *

Recorded Total turnings, one value per entry.
assay-system: Dopamine receptor (Rattus norvegicus) (UniProt P25115+P19020+P30729+P18901+P61169)
protocol-text: Evaluation for contralateral turning in 6-hydroxy-dopamine-lesioned rats administered intraperitoneally at the dose 1 mg/kg total turnings
Format: functional, organism-based
Design: dose 1 mg/kg

Worked cases, Total turnings given:
CCCN(CCC#N)C1CCc2c(O)cccc2C1 (stereo not drawn)
< 150
CN(CCCC#N)C1CCc2c(O)cccc2C1 (stereo not drawn)
< 150

Next compound, please.
[in] Kindly indicate its recorded Total turnings. Item: CCN(CCCC#N)C1CCc2c(O)cccc2C1 (stereo not drawn)
[out] < 150

* * *

assay-system: Dopamine receptor (Rattus norvegicus) (UniProt P25115+P19020+P30729+P18901+P61169)
protocol-text: Evaluation for contralateral turning in 6-hydroxy-dopamine-lesioned rats administered intraperitoneally at the dose 1 mg/kg duration
Type: functional, organism-based
Parameters: dose 1 mg/kg
property-name: Duration (h)

Example cases with answers are listed next.
C=CCCCN(CCC)C1CCc2c(O)cccc2C1 (stereo not given)
7
CCCN(CCC)C1CCc2c(O)cccc2C1 (stereo not given)
6
CCCN(CCCN=[N+]=[N-])C1CCc2c(O)cccc2C1 (stereo not given)
7

1: CCCN(CCCSC)C1CCc2c(O)cccc2C1 (single isomer, unassigned; (-))
2: CCCN(CCCCC#N)C1CCc2c(O)cccc2C1 (stereo not given)
[in] Lab notebook, comparison: 1 versus 2 , higher Duration goes to which? Give the label under which the chosen entry appears.
[out] 1
(1: 7 h, 2: 4 h)

* * *

assay-system: Dopamine receptor (Rattus norvegicus) (UniProt P25115+P19020+P30729+P18901+P61169)
protocol-text: Evaluation for contralateral turning in 6-hydroxy-dopamine-lesioned rats administered intraperitoneally at the dose 1 mg/kg duration
Type: functional, organism-based
Design: dose 1 mg/kg
property-name: Duration (h)

CCCN(CCCSC)C1CCc2c(O)cccc2C1 (stereo in doubt; 12)
7
CCCN(CCc1ccccc1)C1CCc2c(O)cccc2C1 (stereo not given)
6
CCCN(CCCc1ccccc1)C1CCc2c(O)cccc2C1 (stereo not given)
5
